Exercise: state measured IC50 for each of the compounds provided.
# method notes: Cytotoxicity against human PXF 1752L cells after 4 days by propidium iodide staining-based fluorometric analysis
# Format: functional, cell-based
# condition notes: 96 h
Entry rule: numbers only, all in µM.

Entry under test: O=C(c1cc2cc(O)ccc2[nH]1)c1cc2c(Nc3ccc(F)c(Cl)c3)ncnc2s1 . Its IC50 was 8.19

Notebook: C#Cc1cccc(Nc2ncnc3cc(OCCOC)c(OCCOC)cc23)c1 [ERLOTINIB] , IC50 read as 31.6

The value of IC50 measured for the compound O=C(c1cc2ccccc2[nH]1)c1cc2c(Nc3ccc(F)c(Cl)c3)ncnc2s1 turned out to be 13.5

compound CS(=O)(=O)CCNCc1ccc(-c2ccc3ncnc(Nc4ccc(OCc5cccc(F)c5)c(Cl)c4)c3c2)o1 [LAPATINIB] , IC50 observed: 9.46

IC50 measured on COc1ccc2[nH]c(C(=O)c3cc4c(Nc5ccc(F)c(Cl)c5)ncnc4s3)cc2c1 = 36

Recorded result, O=C(c1cc2ccccc2[nH]1)c1cc2c(Nc3cccc(Cl)c3)ncnc2s1 , IC50: 30.7

---

# method notes: Cytotoxicity against human RXF 1781L cells after 4 days by propidium iodide staining-based fluorometric analysis
# Format: functional, cell-based
# condition notes: 96 h
measured endpoint: pIC50
On this scale, pIC50 is minus log10 of a concentration expressed in M (mol/L).

Measured pIC50 of CS(=O)(=O)CCNCc1ccc(-c2ccc3ncnc(Nc4ccc(OCc5cccc(F)c5)c(Cl)c4)c3c2)o1 : 5.12

// field: pIC50; key: O=C(c1cc2ccccc2[nH]1)c1cc2c(Nc3ccc(F)c(Cl)c3)ncnc2s1 ; value = 5.04

Short answer for O=C(c1cc2ccccc2[nH]1)c1cc2c(Nc3cccc(Cl)c3)ncnc2s1 : pIC50 was 4.70

// field: pIC50; key: COc1ccc2[nH]c(C(=O)c3cc4c(Nc5ccc(F)c(Cl)c5)ncnc4s3)cc2c1 ; value = 4.52

Consider C#Cc1cccc(Nc2ncnc3cc(OCCOC)c(OCCOC)cc23)c1 . Its measured pIC50 is 4.12

// pIC50 lookup, molecule = O=C(c1cc2cc(O)ccc2[nH]1)c1cc2c(Nc3ccc(F)c(Cl)c3)ncnc2s1 , result: 5.31

---

Assignment: determine reported pIC50 for the given compounds.
# method notes: Cytotoxicity against human DIFI cells after 4 days by propidium iodide staining-based fluorometric analysis
# Assay type: functional, cell-based
# condition notes: 96 h
# pIC50: negative log10 of molar concentration; output just the value

compound O=C(c1cc2ccccc2[nH]1)c1cc2c(Nc3cccc(Cl)c3)ncnc2s1 , pIC50 observed: 5.74

Please fill in: pIC50 reported for O=C(c1cc2ccccc2[nH]1)c1cc2c(Nc3ccc(F)c(Cl)c3)ncnc2s1 = 5.86

What the record says about C#Cc1cccc(Nc2ncnc3cc(OCCOC)c(OCCOC)cc23)c1 [ERLOTINIB] : pIC50 is 6.85

Measured pIC50 of COc1ccc2[nH]c(C(=O)c3cc4c(Nc5ccc(F)c(Cl)c5)ncnc4s3)cc2c1 : 6.00

For record CS(=O)(=O)CCNCc1ccc(-c2ccc3ncnc(Nc4ccc(OCc5cccc(F)c5)c(Cl)c4)c3c2)o1 [LAPATINIB] the listed pIC50 is 6.63

What the record says about O=C(c1cc2cc(O)ccc2[nH]1)c1cc2c(Nc3ccc(F)c(Cl)c3)ncnc2s1 : pIC50 is 6.03
